Please go through the items and note down their internalization Top (MFI), A375 cells.
Target: T1, human interleukin 13 receptor subunit alpha 2 (IL-13RA2) (human, UniProt Q14627 27-380)
T1 sequence (looked up): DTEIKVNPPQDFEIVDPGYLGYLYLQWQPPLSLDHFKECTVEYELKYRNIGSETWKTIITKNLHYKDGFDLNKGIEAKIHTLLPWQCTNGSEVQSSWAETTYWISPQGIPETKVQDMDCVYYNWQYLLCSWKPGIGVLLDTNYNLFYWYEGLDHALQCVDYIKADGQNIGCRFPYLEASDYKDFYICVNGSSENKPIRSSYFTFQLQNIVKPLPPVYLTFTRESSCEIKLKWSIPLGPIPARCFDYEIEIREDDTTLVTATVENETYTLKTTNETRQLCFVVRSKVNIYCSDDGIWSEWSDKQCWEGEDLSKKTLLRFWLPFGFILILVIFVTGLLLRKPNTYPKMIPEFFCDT
Assay: cell-based or functional assay
Answers are plain numbers, in MFI.

binder | unit.of.measure | internalization Top (MFI), A375 cells
xi62A8D8 hIgG1 (antibody, V domains shown) VH: EVKLVESGGGLVKPGGSLKLSCAASGFTFSSYGMSWVRQTPEKRLEWVATISGGGSYTYYPDSVKGRFTISRDNAKNNLYLQMSSLRSEDTALYYCARRDLRSAMDYWGQGTSVTVSS VL: DIVMTQSQKFMSTSVGDRVSVTCKASQNVDINVAWYQQKPGQSPKALIYSASYRYSGVPDRFTGSGSGTDFTLTISNVQSEDLAEFFCQQYNNYPLTFGGGTKLEIK | MFI | 5550
xi24G6D5 hIgG1 (antibody, V domains shown) VH: QVQLQQSGPELVKPGTSVKMSCKASGYTFTSNYIHWVKQRPGQGLEWIGWIYPGDGSIKYNEKFKGKTTLTADKSSSTVYMLLSSLTSEDSAIYFCAVLRRLDYWGQGTTLTVSS VL: DIVLTQSPATLSVTPGDSVSLSCRASQSISNNLHWYQQKSHESPRLLIKYASQSISGIPSRFSGSGSGTDFTLSINSVETEDFGMYFCQQSNSWPLTFGAGTKLELK | MFI | 4110

Turning now to a further record.
Query block: Please look up its internalization Top (MFI), A375 cells: xi34A5G9 hIgG1 (antibody, V domains shown) VH: EVHLQQSGPELVKPGASVKISCKTSGYTFTEYTMHWVKQSHGKSLEWIGRINPNNGIAEYKQTFKDKATLAVDKSSSTAYMEFRSLTSEDSAVYYCARGEGYGYWFAYWGQGTLVTVSA VL: DIQMTQSPASLSASVGETVTITCRTSDNIYSYLAWYQQRQGKSPQLLVSNARTLAEGVPSRFSGSGSGTQFSLKINSLQPEDFGIYYCQHHSGTPFTFGSGTNLEIE
Result block: 8610
